Reported values of GI50 for individual entries
System: OVCAR-3
assayNotes: NCI tumour cell line growth inhibition, 48 h
Activity calls are given as the source filed them. No stated cut-off is given here; in the data, active = GI50 up to about 1.1 µM and inactive = higher.
attributeMeasured: GI50

| molecule | experimentalValue |
| --- | --- |
| Cc1cc(NS(=O)(=O)c2ccc(NC(=O)c3ccc4nc5ccccc5c(Nc5ccc(S(N)(=O)=O)cc5)c4c3)cc2)no1 | 27.5 µM (inactive) |
| CCN(CC)CCCC(C)Nc1c2ccc(Cl)cc2nc2cc(Cl)ccc12 (centres undefined) | 5.71 µM (inactive) |
| Oc1ccc(-c2cn3cc(C(F)(F)F)ccc3n2)cc1 | 41.3 µM (inactive) |
| CNC(=S)/N=C(\N)N(C)C | > 100 µM (inactive) |
| O=C1C=C(c2c(O)ccc3ccccc23)c2ccccc2C1=O | 2.32 µM (inactive) |
| CC(C)CCNC(=O)c1ccc(CNC(=O)/C=C/c2ccc(-c3ccccc3[N+](=O)[O-])o2)cc1 | 94.8 µM (inactive) |
| CSc1c(C#N)c2n(c3ccccc3[n+]2C)c2ncccc12 | 22.2 µM (inactive) |
| NC(=O)C(=CNC(=S)Nc1cccc(C(F)(F)F)c1)C(N)=O | > 100 µM (inactive) |
| COC(=O)c1ccc2c(c1)CC1(C2)Cc2cc3c(cc2C1=O)CCC3 (centres undefined) | 26.7 µM (inactive) |
